assay: Pharmacokinetic study in humans, sodium salt tablets, multiple dose (Example 3); format: in vivo, human; settings: human, plasma, oral, 200 mg, 200 mg Dose Group, tablet once daily, Day 21, Median; read-out: Tmax

smiles data	units symbol	Tmax
O=C(Nc1nc(=O)n(Cc2ccc(Cl)cc2)s1)c1ccc(Cl)cc1	h	8

---

assay: Pharmacokinetic study in humans, sodium salt in enteric capsules, single and multiple dose (Example 2); assay type: in vivo, human; conditions: human, plasma, oral, 800 mg, mean, dose group 800, capsule, Day 1

smiles data	units symbol	AUC(0-t)
O=C(Nc1nc(=O)n(Cc2ccc(Cl)cc2)s1)c1ccc(Cl)cc1	µg·h/mL	340

---

experiment: Pharmacokinetic study in humans, sodium salt tablets, multiple dose (Example 3); format: in vivo, human; settings: human, plasma, oral, 400 mg, 400 mg Dose Group, tablet once daily, Day 21, Mean; read-out: Cmax
recorded metric: Cmax (µg/mL)

compound	observed result
O=C(Nc1nc(=O)n(Cc2ccc(Cl)cc2)s1)c1ccc(Cl)cc1 [Compound of formula II]	138

---

Assay: Pharmacokinetic study in humans, sodium salt in enteric capsules, single and multiple dose (Example 2)
Format: in vivo, human
Conditions: human, plasma, oral, 2000 mg, 2000 mg Dose Group, capsule once daily, Day 18, Geometric Mean
Procedure: An open, randomised, parallel-group study in healthy volunteers (hereafter referred to as subjects) was conducted to evaluate the exposure of 4-chloro-N-[2-[(4-chlorophenyl)methyl]-3-oxo-1,2,4-thiadiazol-5-yl]benzamide after single and multiple dose administration of 3 dose levels of the sodium salt of 4-chloro-N-[2-[(4-chlorophenyl)methyl]-3-oxo-1,2,4-thiadiazol-5-yl]benzamide and to evaluate combination with dapagliflozin at steady state. […]
recorded metric: AUC (µg·h/mL)

smiles data	observed result
O=C(Nc1nc(=O)n(Cc2ccc(Cl)cc2)s1)c1ccc(Cl)cc1	987

---

test: Pharmacokinetic study in humans, sodium salt in enteric capsules, single and multiple dose (Example 2); format: in vivo, human; settings: human, plasma, oral, 800 mg, 800 mg Dose Group, capsules once daily, Day 18, Mean; read-out: Tmax
recorded metric: Tmax

molecule	observed result
O=C(Nc1nc(=O)n(Cc2ccc(Cl)cc2)s1)c1ccc(Cl)cc1 [Compound of formula II]	11.5 h

---

test: Pharmacokinetic study in humans, sodium salt in enteric capsules, single and multiple dose (Example 2); assay type: in vivo, human; settings: human, plasma, oral, 200 mg, mean, dose group 200, capsule, Day 18
recorded metric: AUC(0-t) (µg·h/mL)

molecule	recorded metric	observed result
O=C(Nc1nc(=O)n(Cc2ccc(Cl)cc2)s1)c1ccc(Cl)cc1 [Compound of formula II]	AUC(0-t)	1060

---

assay: Pharmacokinetic study in humans, sodium salt in enteric capsules, single and multiple dose (Example 2); type: in vivo, human; conditions: human, plasma, oral, 800 mg, mean, dose group 800, capsule, Day 1; read-out: Cmax

smiles data	Cmax, ng/mL
O=C(Nc1nc(=O)n(Cc2ccc(Cl)cc2)s1)c1ccc(Cl)cc1	22800

---

Assay: Pharmacokinetic study in humans, sodium salt tablets, multiple dose (Example 3)
Assay type: in vivo, human
Conditions: human, plasma, oral, 200 mg, 200 mg dose group (212.12 mg sodium salt tablet once daily), 24 h after dose of Day 21; read-out: Clast at 24 hours, Mean
Method: An open, randomised, parallel-group study was conducted to evaluate the exposure and safety of 4-chloro-N-[2-[(4-chlorophenyl)methyl]-3-oxo-1,2,4-thiadiazol-5-yl]benzamide sodium salt tablets in doses of 212.12 mg and 424.24 mg (equivalent to 200 mg and 400 mg doses of 4-chloro-N-[2-[(4-chlorophenyl)methyl]-3-oxo-1,2,4-thiadiazol-5-yl]benzamide) at steady state in healthy volunteers (hereafter referred to as subjects). […]

molecule	concentration at 24 h (µg/mL)
O=C(Nc1nc(=O)n(Cc2ccc(Cl)cc2)s1)c1ccc(Cl)cc1 [Compound of formula II]	80.4

The origin of these recorded values is patent US20240082222A1.
